Source listed as the NIST ThermoML archive (doi:10.1016/j.tca.2011.10.010).

A collection of compounds and their measured mass density
- METHOD: xn = mol fraction of the nth substance listed
- CONDITION DESCRIPTION: 323.15 K; 101 kPa; Liquid; Vibrating tube method; x1 = 0.25
PROPERTY MEASURED: mass density (kg/m3)

| COMPOUND | MEASURED RESULT |
| --- | --- |
| C[P+](c1ccccc1)(c1ccccc1)c1ccccc1.[Br-] [methyltriphenylphosphonium bromide] + OCCO | 1232.4 |
| C[N+](C)(C)CCO.[Cl-] [choline chloride] + OCC(O)CO | 1189.1 |
| CCN(CC)CCO.Cl [2-(diethylamino)ethanol hydrochloride] + OCCO | 1086.2 |
| CCN(CC)CCO.Cl [2-(diethylamino)ethanol hydrochloride] + OCC(O)CO | 1188.4 |
| C[P+](c1ccccc1)(c1ccccc1)c1ccccc1.[Br-] [methyltriphenylphosphonium bromide] + OCC(O)CO | 1280.9 |

----------
- METHOD: xn = mol fraction of the nth substance listed
- CONDITION DESCRIPTION: 313.15 K; 101 kPa; Liquid; Vibrating tube method; x1 = 0.2
PROPERTY MEASURED: mass density (kg/m3)

| MOLECULE | PROPERTY MEASURED | MEASURED RESULT |
| --- | --- | --- |
| C[P+](c1ccccc1)(c1ccccc1)c1ccccc1.[Br-] [methyltriphenylphosphonium bromide] + OCCO | mass density | 1222 |
| C[P+](c1ccccc1)(c1ccccc1)c1ccccc1.[Br-] [methyltriphenylphosphonium bromide] + OCC(O)CO | mass density | 1278 |
| CCN(CC)CCO.Cl [2-(diethylamino)ethanol hydrochloride] + OCCO | mass density | 1094.2 |
| CCN(CC)CCO.Cl [2-(diethylamino)ethanol hydrochloride] + OCC(O)CO | mass density | 1211.4 |

----------
A collection of compounds and their measured mass density
- METHOD: xn = mol fraction of the nth substance listed
- CONDITION DESCRIPTION: 313.15 K; 101 kPa; Liquid; Vibrating tube method; x1 = 0.25

| COMPOUND | MEASURE UNIT | mass density |
| --- | --- | --- |
| C[P+](c1ccccc1)(c1ccccc1)c1ccccc1.[Br-] [methyltriphenylphosphonium bromide] + OCC(O)CO | kg/m3 | 1287 |
| C[N+](C)(C)CCO.[Cl-] [choline chloride] + OCC(O)CO | kg/m3 | 1195.1 |
| CCN(CC)CCO.Cl [2-(diethylamino)ethanol hydrochloride] + OCCO | kg/m3 | 1092.6 |
| CCN(CC)CCO.Cl [2-(diethylamino)ethanol hydrochloride] + OCC(O)CO | kg/m3 | 1196.1 |
| C[P+](c1ccccc1)(c1ccccc1)c1ccccc1.[Br-] [methyltriphenylphosphonium bromide] + OCCO | kg/m3 | 1239.8 |

----------
A collection of compounds and their measured mass density
- METHOD: xn = mol fraction of the nth substance listed
- CONDITION DESCRIPTION: 323.15 K; 101 kPa; Liquid; Vibrating tube method; x1 = 0.33

| COMPOUND | mass density [kg/m3] |
| --- | --- |
| C[N+](C)(C)CCO.[Cl-] [choline chloride] + OCCO | 1103.6 |
| C[N+](C)(C)CCO.[Cl-] [choline chloride] + OCC(O)CO | 1177.6 |
| CCN(CC)CCO.Cl [2-(diethylamino)ethanol hydrochloride] + OCC(O)CO | 1158.5 |
| C[P+](c1ccccc1)(c1ccccc1)c1ccccc1.[Br-] [methyltriphenylphosphonium bromide] + OCC(O)CO | 1288.6 |
| CCN(CC)CCO.Cl [2-(diethylamino)ethanol hydrochloride] + OCCO | 1084 |

----------
- METHOD: xn = mol fraction of the nth substance listed
- CONDITION DESCRIPTION: 323.15 K; 101 kPa; Liquid; Vibrating tube method; x1 = 0.2
A collection of compounds and their measured mass density
PROPERTY MEASURED: mass density (kg/m3)

| COMPOUND | MEASURED RESULT |
| --- | --- |
| CCN(CC)CCO.Cl [2-(diethylamino)ethanol hydrochloride] + OCC(O)CO | 1204.8 |
| CCN(CC)CCO.Cl [2-(diethylamino)ethanol hydrochloride] + OCCO | 1087.7 |
| C[P+](c1ccccc1)(c1ccccc1)c1ccccc1.[Br-] [methyltriphenylphosphonium bromide] + OCCO | 1215.1 |
| C[P+](c1ccccc1)(c1ccccc1)c1ccccc1.[Br-] [methyltriphenylphosphonium bromide] + OCC(O)CO | 1271 |

----------
A collection of compounds and their measured mass density
- METHOD: xn = mol fraction of the nth substance listed
- CONDITION DESCRIPTION: 363.15 K; 101 kPa; Liquid; Vibrating tube method; x1 = 0.2
PROPERTY MEASURED: mass density (kg/m3)

| COMPOUND | MEASURED RESULT |
| --- | --- |
| C[P+](c1ccccc1)(c1ccccc1)c1ccccc1.[Br-] [methyltriphenylphosphonium bromide] + OCC(O)CO | 1242.3 |
| CCN(CC)CCO.Cl [2-(diethylamino)ethanol hydrochloride] + OCC(O)CO | 1180.7 |
| C[P+](c1ccccc1)(c1ccccc1)c1ccccc1.[Br-] [methyltriphenylphosphonium bromide] + OCCO | 1186.4 |
| CCN(CC)CCO.Cl [2-(diethylamino)ethanol hydrochloride] + OCCO | 1062.2 |

----------
A collection of molecules and their measured mass density
- METHOD: xn = mol fraction of the nth substance listed
- CONDITION DESCRIPTION: 303.15 K; 101 kPa; Liquid; Vibrating tube method; x1 = 0.33
PROPERTY MEASURED: mass density (kg/m3)

| MOLECULE | MEASURED RESULT |
| --- | --- |
| C[N+](C)(C)CCO.[Cl-] [choline chloride] + OCC(O)CO | 1189.5 |
| CCN(CC)CCO.Cl [2-(diethylamino)ethanol hydrochloride] + OCC(O)CO | 1170 |
| C[N+](C)(C)CCO.[Cl-] [choline chloride] + OCCO | 1114.6 |
| CCN(CC)CCO.Cl [2-(diethylamino)ethanol hydrochloride] + OCCO | 1096.5 |
| C[P+](c1ccccc1)(c1ccccc1)c1ccccc1.[Br-] [methyltriphenylphosphonium bromide] + OCC(O)CO | 1303 |

----------
A collection of molecules and their measured mass density
- METHOD: xn = mol fraction of the nth substance listed
- CONDITION DESCRIPTION: 333.15 K; 101 kPa; Liquid; Vibrating tube method; x1 = 0.2
PROPERTY MEASURED: mass density (kg/m3)

| MOLECULE | PROPERTY MEASURED | MEASURED RESULT |
| --- | --- | --- |
| C[P+](c1ccccc1)(c1ccccc1)c1ccccc1.[Br-] [methyltriphenylphosphonium bromide] + OCCO | mass density | 1207.9 |
| CCN(CC)CCO.Cl [2-(diethylamino)ethanol hydrochloride] + OCC(O)CO | mass density | 1198.9 |
| CCN(CC)CCO.Cl [2-(diethylamino)ethanol hydrochloride] + OCCO | mass density | 1081.5 |
| C[P+](c1ccccc1)(c1ccccc1)c1ccccc1.[Br-] [methyltriphenylphosphonium bromide] + OCC(O)CO | mass density | 1263.4 |

----------
- METHOD: xn = mol fraction of the nth substance listed
- CONDITION DESCRIPTION: 363.15 K; 101 kPa; Liquid; Vibrating tube method; x1 = 0.25
PROPERTY MEASURED: mass density (kg/m3)

| COMPOUND | PROPERTY MEASURED | MEASURED RESULT |
| --- | --- | --- |
| CCN(CC)CCO.Cl [2-(diethylamino)ethanol hydrochloride] + OCCO | mass density | 1060 |
| C[P+](c1ccccc1)(c1ccccc1)c1ccccc1.[Br-] [methyltriphenylphosphonium bromide] + OCC(O)CO | mass density | 1252.4 |
| CCN(CC)CCO.Cl [2-(diethylamino)ethanol hydrochloride] + OCC(O)CO | mass density | 1166.1 |
| C[P+](c1ccccc1)(c1ccccc1)c1ccccc1.[Br-] [methyltriphenylphosphonium bromide] + OCCO | mass density | 1204.5 |
| C[N+](C)(C)CCO.[Cl-] [choline chloride] + OCC(O)CO | mass density | 1167.8 |

----------
- METHOD: xn = mol fraction of the nth substance listed
- CONDITION DESCRIPTION: 343.15 K; 101 kPa; Liquid; Vibrating tube method; x1 = 0.33
± gives the expanded uncertainty stated by the source.
A collection of compounds and their measured mass density
PROPERTY MEASURED: mass density

| COMPOUND | MEASURED RESULT |
| --- | --- |
| CCN(CC)CCO.Cl [2-(diethylamino)ethanol hydrochloride] + OCC(O)CO | 1145.8 ± 12 kg/m3 |
| C[P+](c1ccccc1)(c1ccccc1)c1ccccc1.[Br-] [methyltriphenylphosphonium bromide] + OCC(O)CO | 1274.9 ± 13 kg/m3 |
| C[N+](C)(C)CCO.[Cl-] [choline chloride] + OCC(O)CO | 1167.4 ± 12 kg/m3 |
| C[N+](C)(C)CCO.[Cl-] [choline chloride] + OCCO | 1091.6 ± 12 kg/m3 |
| CCN(CC)CCO.Cl [2-(diethylamino)ethanol hydrochloride] + OCCO | 1071.7 ± 12 kg/m3 |
